Assay Overview: anti-His antibody binders, primary screen, artefact control for SMM control protein annotation, biochemical, small-molecule microarray, 635 nm fluorescence (AID 1128);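 further: score merges feature fluorescence with signal-to-noise for each printed compound spot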
Protocol Conditions: anti-His Alexa647 antibody binding, higher = more signal
Give composite z-score for every item shown.

Entry under test: COCCOC(=O)N1C(=O)[C@@]2(c3cc(C#CCCO)ccc31)[C@H](C(=O)N1CCN(c3ncccn3)CC1)[C@H]1C(=O)O[C@H](c3ccccc3)[C@H](c3ccccc3)N1[C@@H]2c1ccccc1OCCO . Its composite z-score was 0.475

COCCn1c(C(=O)N2CCCC2)cc2c1C[C@H]1CN(C(=O)c3ccccc3)[C@@](Cc3ccc(F)cc3)(C(=O)OC)[C@@H]21 has a reported composite z-score of 0.346

Reported composite z-score for COCCOC(=O)N1C(=O)[C@@]2(c3cc(C#Cc4ccc(OC)cc4)ccc31)[C@H](c1ccccc1OCCO)N1[C@H](c3ccccc3)[C@H](c3ccccc3)OC(=O)[C@H]1[C@@H]2C(=O)N1CCN(c2ncccn2)CC1 was 2.12

What the record says about CN(C)CCCNC(=O)[C@@]1(c2ccc([N+](=O)[O-])cc2)CC(=O)N(C2CCCCC2)[C@@H]1c1ccc(CO)cc1I : composite z-score is 1.48

What the record says about NCCCCCNC(=O)[C@@H]1C[C@@H]2C(=O)N[C@@H](Cc3ccccc3)C(=O)N2[C@@H]1c1cccc(OCCO)c1 : composite z-score is 1.63

The compound CCOC(=O)C[C@H]1[C@H](OC(=O)Cc2ccc3c(c2)OCO3)[C@@H](NC(=O)c2ccc(-c3ccccc3)cc2)c2cc(OCCCO)ccc2N1C(=O)c1ccc2ccccc2n1 showed composite z-score equal to 0.0542
